System: MAP3K15
Cond: concentration: 1 μM, replicates: in singlicate; n = 1
Readout Kind: %Inh

>>> df
                                   molecule  value
0  O=C(Nc1n[nH]c2nc(-c3nccs3)c(Br)cc12)C1CC1     0%
1                Cc1ccccc1-n1cnc2c(N)ncnc21     0%
2  Cc1cc(N2Cc3ccccc3C2)nc(Nc2ccc(S(=O)(=O)N3CCOCC3)cc2)n1.Cl     0%
3  CC(=O)Nc1nc2cnc(Nc3cc(NC(=O)c4cccc(CCC#N)c4)ccc3C)nc2s1     8%
4  COc1ccccc1CNC(=O)c1cc(C(=O)c2ccccc2C)c[nH]1     3%
5  COc1cc(Nc2nccc(N3CCC(NC(=O)Nc4cc(C)ccc4C)C3)n2)cc(OC)c1OC (stereo not drawn)    17%
6  O=C(Nc1ccc2c(c1)OCO2)NC1CCN(c2ccnc(Nc3ccc(F)cc3)n2)C1 (stereo not drawn)     0%
7  COc1ccccc1-c1ccc2c(NC(=O)C3CC3)n[nH]c2n1     0%
8  Cc1c(Cn2ccn3c(=O)cc(N4CCOCC4)nc23)cccc1C(F)(F)F     0%

---

System: MKK7
Cond: concentration: 1 μM, replicates: in singlicate; n = 1
Readout Kind: %Inh (%)

>>> df
                                   molecule  readout_kind  value
0  O=C(Nc1n[nH]c2cc(-c3cccc(F)c3F)ccc12)C1CC1 [SB-733894]          %Inh      0
1  Cl.c1ccc(-c2n[nH]cc2-c2ccnc(-c3ccc(CN4CCOCC4)cc3)c2)nc1 [GW776245]          %Inh      0
2  CN(C)CCN(C)C(=O)c1cc(-c2ccncc2)c(-c2ccc(Cl)c(O)c2)o1.Cl.Cl [SB-710397]          %Inh     14
3                     NC(=O)c1nnc2ccccc2c1N          %Inh      0
4     Nc1ncnc2[nH]c(-c3ccccc3)nc12 [AH5015]          %Inh      0

---

Test system: EGFR
Cond: concentration: 1 μM, replicates: in singlicate; n = 1
Would you please tag the item YES when its %Inh is 30% or above, and NO when it is below?

In [3]: df
Out[3]:
                                   compound  class_name
0  Cl.Oc1ccc(-c2nc(-c3ccccc3)[nH]c2-c2ccncc2)cc1         YES
1  COc1cccc(-c2cc(-c3c[nH]nc3-c3ccccn3)ccn2)c1         YES
2                     NC(=O)c1nnc2ccccc2c1N          NO
3  Cc1ccc(C(=O)Nc2ccc(Nc3ccnc4cc(-c5ccccn5)ccc34)cc2O)cc1.Cl         YES
4       Nc1nc(-c2nccs2)c(-c2ccnc3ccccc23)s1          NO
5  Cc1cccc(-c2nc(Nc3cccc(C(N)=O)c3)c3ccccc3n2)n1          NO
6  O=S(=O)(c1ccc(-c2ccnc3[nH]ccc23)cc1)N1CCCC1         YES
7  COc1cc2ncn(-c3cc(OCC4CCCO4)c(C(N)=O)s3)c2cc1OC (stereo not shown)          NO
8   O=C(Nc1ccccc1)Nc1cccc(Oc2ccc3nccn3n2)c1         YES
9  Cc1nnc(-c2ccc3occ(-c4ccc(S(C)=O)cc4)c3c2)[nH]1 (stereo not shown)          NO

---

Tested on: PIK4CB
Construct: gene PI4KB
Cond: concentration: 1 μM, replicates: in singlicate; n = 1
Readout Kind: %Inh (%)

In [3]: df
Out[3]:
                                   compound  value
0  Cc1cccc(-c2nc(Nc3cccc(C(N)=O)c3)c3ccccc3n2)n1      0
1  COc1cc(Nc2nccc(N3CCC(NC(=O)Nc4cc(C)ccc4C)C3)n2)cc(OC)c1OC (stereo not drawn)     15
2               CCn1c(-c2cccnc2O)nc2cnccc21     24
3  O=C(Nc1n[nH]c2nc(-c3nccs3)c(Br)cc12)C1CCCC1      0
4  Cn1ccc2ncnc(Oc3ccc(Nc4nc5ccccc5[nH]4)cc3)c21      0
5                CCn1c(-c2ccccn2)nc2cnccc21      0
6  Cc1cc(NCC(c2ccccc2)c2ccccc2)nc(NCc2ccc(C(F)(F)F)cc2)n1      0
7  COc1cc2ncn(-c3cc(OCC4CCCO4)c(C(N)=O)s3)c2cc1OC (stereo not drawn)      0
8  Cc1c(O)cccc1Nc1ccnc2ccc(C(F)(F)F)cc12.Cl      3

---

Tested on: CSNK1D
Cond: concentration: 1 μM, replicates: in singlicate; n = 1
Cut-off 6% on %Inh, inclusive. At or above means True; below means False.

>>> print(df.to_string())
                                   molecule  class_name
0  COC(=O)c1c(-c2ccccc2)c2cc(OC)ccc2c(=O)n1Cc1ccccc1       False
1      Cc1csc(-c2nc(Nc3ccncc3)c3ccccc3n2)n1        True
2  Cc1cc(NCC(c2ccccc2)c2ccccc2)nc(NCc2ccc(C(F)(F)F)cc2)n1       False
3  CN1C(=O)C(Nc2ccc(Cl)c(C(=O)O)c2)=C(c2ccc(Cl)cc2)C1=O       False
4  CCCc1ccc(S(=O)(=O)NC2CCN(c3ccnc(Nc4ccc(F)cc4)n3)C2)cc1 (centres unmarked)       False
5  Cn1ccc2ncnc(Oc3ccc(NC(=O)Nc4ccccc4)cc3)c21        True
6  O=C(Nc1n[nH]c2nc(-c3nccs3)c(Br)cc12)C1CCCC1        True
7  CC1=C(C(=O)Nc2cc3cn[nH]c3cc2F)C(c2ccc(C(F)(F)F)cc2)CC(=O)N1 (centres unmarked)        True
8       Nc1nc(-c2nccs2)c(-c2ccnc3ccccc23)s1        True
9                Cc1ccccc1-n1cnc2c(N)ncnc21       False

---

Tested on: NEK3
Cond: concentration: 1 μM, replicates: in singlicate; n = 1
Readout Kind: %Inh (%)

                                   compound  units  value
0  COc1cc2nccc(Nc3ccc(NC(=O)c4ccc(C)cc4)c(O)c3)c2cc1OC.Cl      %      0
1    Fc1cccc(COc2nnc(-c3ccc4c(c3)CCO4)o2)c1      %     12
2  COc1ccccc1-c1ccc2c(NC(=O)C3CC3)n[nH]c2n1      %      0
3  O=C(Nc1ccc2c(c1)OCO2)NC1CCN(c2ccnc(Nc3ccc(F)cc3)n2)C1 (stereo not drawn)      %     17
4  Cc1cc(N2Cc3ccccc3C2)nc(Nc2ccc(S(=O)(=O)N3CCOCC3)cc2)n1.Cl      %      0
5  Cc1cc(NCC(c2ccccc2)c2ccccc2)nc(NCc2ccc(C(F)(F)F)cc2)n1      %      0
6  Cl.Oc1ccc(-c2nc(-c3ccccc3)[nH]c2-c2ccncc2)cc1      %     15
7  CS(=O)(=O)c1ccc(-c2nc3n(c2-c2ccncc2)CCC3)cc1      %     58
8  Cc1cc(-c2ccc3c(c2)CC[C@@H](N[C@@H](C)c2ccccc2)C3)cnc1N.Cl      %      0

---

System: LTK;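 further: kd values determined as follow-up on hits from a single-replicate KINOMEscan panel screen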
Readout Kind: Kd

In [3]: df
Out[3]:
                           structure_string  assay_system    value
0  O=C(O)COc1ncnc2cc(-c3ccc4[nH]ncc4c3)sc12           LTK  > 10 µM

---

Parameter: %Inh. Scope: all listed entries.
Test system: CDC2L1
Construct: gene CDK11B
Cond: concentration: 1 μM, replicates: in singlicate; n = 1
Readout Kind: %Inh (%)

>>> df
                                    molecule  assay_system  readout_kind  value
 0  COc1cc2ncn(-c3cc(OCC4CCCO4)c(C(N)=O)s3)c2cc1OC (stereo not drawn)        CDC2L1          %Inh      0
 1     Cc1cccc(-c2nc(Nc3ccncc3)c3ccccc3n2)n1        CDC2L1          %Inh      0
 2  CC1=C(C(=O)Nc2cc3cn[nH]c3cc2F)C(c2ccc(C(F)(F)F)cc2)CC(=O)N1 (stereo not drawn)        CDC2L1          %Inh      0
 3  CC(C)(C)c1ccc(C(=O)Nc2cn3cc(-c4cccnc4)ccc3n2)cc1        CDC2L1          %Inh     11
 4  CS(=O)(=O)c1ccc(-c2nc3n(c2-c2ccncc2)CCC3)cc1        CDC2L1          %Inh    100
 5   O=C1NC(=O)C(N2CCc3ccccc32)=C1c1ccccc1Cl        CDC2L1          %Inh      0
 6  COC(=O)c1c(-c2ccccc2)c2cc(C(=O)O)ccc2c(=O)n1Cc1ccccc1        CDC2L1          %Inh      0
 7  O=C(Nc1n[nH]c2nc(-c3nccs3)c(Br)cc12)C1CC1        CDC2L1          %Inh      0
 8  CN1C(=O)C(Nc2ccc(Cl)c(C(=O)O)c2)=C(c2ccc(Cl)cc2)C1=O        CDC2L1          %Inh      0
 9               CCn1c(-c2cccnc2O)nc2cnccc21        CDC2L1          %Inh      0
10  COC(=O)c1c(-c2ccccc2)c2cc(OC)ccc2c(=O)n1Cc1ccccc1        CDC2L1          %Inh      7
11  Clc1cc(Cl)cc(Nc2ccnc(Nc3cc(Cl)cc(Cl)c3)n2)c1        CDC2L1          %Inh      5
12              Nc1ncnc2[nH]c(-c3ccccc3)nc12        CDC2L1          %Inh      0
13  O=S(=O)(c1ccc(-c2ccnc3[nH]ccc23)cc1)N1CCCC1        CDC2L1          %Inh      0
14  Cc1ccc(NC(=O)Nc2cccc(Cl)c2)cc1-c1ccc(C(=O)Nc2ccncc2)cc1        CDC2L1          %Inh      0
